# Target Entity: UniProt Q920D2
# Sequence (Q920D2 whole entry): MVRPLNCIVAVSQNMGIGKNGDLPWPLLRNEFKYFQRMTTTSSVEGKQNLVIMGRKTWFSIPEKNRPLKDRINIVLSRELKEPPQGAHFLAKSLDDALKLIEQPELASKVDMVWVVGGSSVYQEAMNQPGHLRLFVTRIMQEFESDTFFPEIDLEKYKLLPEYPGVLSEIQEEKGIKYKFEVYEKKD
pIC50: −log10 of the molar value.
Would you mind sorting the entries by pIC50 according to these classes? b0: < 4; b1: ≥ 4 and < 5; b2: ≥ 5

Compound	Classification
C=CCc1cc(Cc2cnc(N)nc2N)cc(CCC)c1OC	b1
C=CCc1cc(Cc2cnc(N)nc2N)cc(OC)c1OC	b1
CCCc1cc(Cc2cnc(N)nc2N)cc2c1OC(C)C2C (configuration not stated)	b2
C/C=C/c1cc(Cc2cnc(N)nc2N)cc(OC)c1OC	b1
CCOc1cc(Cc2cnc(N)nc2N)cc2c1OCO2	b1
C=CCOc1cc(Cc2cnc(N)nc2N)cc(OC)c1OC	b0
C=CCc1cc(Cc2cnc(N)nc2N)cc(CCC)c1O	b2
CCCc1cc(Cc2cnc(N)nc2N)cc2c1OC(C)C2 (configuration not stated)	b2
CCOc1cc(Cc2cnc(N)nc2N)cc(OC)c1OC	b0
C=CCc1cc(Cc2cnc(N)nc2N)cc(OC)c1O	b1
CCCc1cc(Cc2cnc(N)nc2N)cc(OC)c1OC	b1

###

# Test Name: Antibacterial (Salmonella typhi CN512) activity compared to trimethoprim.
# Format: functional, salmonella typhosa
Let's look at some compounds and their measured MIC.

Smi	Unit Label	MIC
C=CCOc1ccc(Cc2cnc(N)nc2N)cc1OC	µg/mL	10
COc1cc(Cc2cnc(N)nc2N)cc(OC)c1OC	µg/mL	1
C=CCOc1ccc(Cc2cnc(N)nc2N)cc1CC=C	µg/mL	1000
CCCOc1cc(Cc2cnc(N)nc2N)cc(OC)c1OC	µg/mL	10
C/C=C/c1cc(Cc2cnc(N)nc2N)cc(CCC)c1OC	µg/mL	20
C=CCc1cc(Cc2cnc(N)nc2N)cc(OC)c1O	µg/mL	3

###

# Test Name: Half-life in dogs Plasma
# Type: ADME, organism-based, Canis lupus familiaris
# Condition Details: dog
Respond with yes (1) for half-life values of 3 h and above, no (0) for values below.

Smi	Classification
C/C=C/c1cc(Cc2cnc(N)nc2N)cc(OC)c1OC	no (0)
COc1cc(Cc2cnc(N)nc2N)cc(OC)c1OC	yes (1)
C=CCc1cc(Cc2cnc(N)nc2N)cc(OC)c1OC	no (0)
CCOc1cc(Cc2cnc(N)nc2N)cc(OC)c1OC	yes (1)
C=CCc1cc(Cc2cnc(N)nc2N)cc(OC)c1O	no (0)

###

# Test Name: Antibacterial (Salmonella typhi CN512) activity compared to trimethoprim.
# Format: functional, salmonella typhosa
Let's look at some compounds and their measured MIC.

Compound	MIC (µg/mL)
C=CCc1cc(Cc2cnc(N)nc2N)cc(CCC)c1OC	100
C=CCOc1cc(Cc2cnc(N)nc2N)cc(OC)c1OC	10
C=CCc1cc(Cc2cnc(N)nc2N)cc(CC=C)c1OC	100
COc1cc(Cc2cnc(N)nc2N)cc(CC(C)O)c1O (stereo not drawn)	10
C=CCc1cc(Cc2cnc(N)nc2N)cc(CC=C)c1O	10
CCCc1cc(Cc2cnc(N)nc2N)cc(OC)c1OC	3
C=CCc1cc(Cc2cnc(N)nc2N)cc(CCC)c1O	100
C=CCOc1ccc(Cc2cnc(N)nc2N)cc1	100
C/C=C/c1cc(Cc2cnc(N)nc2N)cc(/C=C/C)c1OC	100
C=CCc1cc(Cc2cnc(N)nc2N)ccc1O	100
CCOc1cc(Cc2cnc(N)nc2N)cc(OC)c1OC	1
C=CCc1cc(Cc2cnc(N)nc2N)cc(OC)c1OC	3
C/C=C/c1cc(Cc2cnc(N)nc2N)cc(OC)c1OC	3
